// provenance: the supplement of paper PMC7125110

B1: glmS ribozyme (parent)
chain: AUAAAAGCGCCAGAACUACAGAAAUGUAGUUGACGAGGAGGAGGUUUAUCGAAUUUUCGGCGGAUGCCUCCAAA

variants of: B1; assay: KM; higher = weaker cofactor use; RNA array; conditions: with glucosamine-6-phosphate
In this section we review reported KM values for a set of variants.
quantityMeasured: KM (µM)

• AUAAAAGCGCCAGAACUACAGAAAUGUAGUUCACGAGGAGGAGGUUUAUCGAAUUUUCGGCGGAUGCUUCCAAA [G32C C68U] = 1350
• AUAAAAGCGCCAGAUCUACAGAAAUGUAGUUGACGAGGAGGAGGUUUAUCGAAUUUUCGGCGGAUGCCUCAAAA [A15U C71A] = 1050
• AUAAAAGCGCCAGUACUACAGAAAUGUAGUUGACGAGGCGGAGGUUUAUCGAAUUUUCGGCGGAUGCCUCCAAA [A14U A39C] = 2790
• AUAAAUGCGCCAGAACUACAGAAAUGUAGUUGACGAGGAGGAGGUUUAUCGAAUUUUCGGCGGAUGCCUCUAAA [A6U C71U] = 2710
• AUAAAAGCACCAGAACUACAGAAAUGUAGUUGACGAGGAGGAGGUUUAUCGAAUUUUCGGCGGAUGCCUCCAAA [G9A] = 5140
• AUAAAAGCGCCAGAACUACAGAAAUGUAAUUGACGAGGAGGAGGUUCAUCGAAUUUUCGGCGGAUGCCUCCAAA [G29A U47C] = 1400
• AUAAAAGCGCCAUAACUACAGAAAUGUAGGUGACGAGGAGGAGGUUUAUCGAAUUUUCGGCGGAUGCCUCCAAA [G13U U30G] = 2660
• AUAAAUGCGCCAGAACUACAGAAAUGUAGUUGACGAGGAGGAGGUUUAUCGAAUUUUCGGCGGGUGCCUCCAAA [A6U A64G] = 1910
• AUAAAAGCGCCAGAACUACAGAAAUGUAGUUGACGAGGAGGAGGGUUAUCGAAUUUUCGGCGGAUGCGUCCAAA [U45G C68G] = 2980
